assay conditions: 298.15 K; 101.33 kPa; Liquid
reported endpoint: mass density (kg/m3)
Record the value in kg/m3, omitting the unit from your answer.

compound	unit abbrev	experimental result
CCCCCCCCCCCCCCCC	kg/m3	771.5
CCCCCCn1cc[n+](C)c1.F[P-](F)(F)(F)(F)F [1-hexyl-3-methylimidazolium hexafluorophosphate]	kg/m3	1293.5
c1ccccc1	kg/m3	873.2
CCCCCCCCCCCC	kg/m3	747

Exercise: Fill in: mass density of CCCCCCn1cc[n+](C)c1.F[B-](F)(F)F [1-hexyl-3-methylimidazolium tetrafluoroborate] is ___
Key: 1148.1

Exercise: What does the data say about its mass density? Entry: CCCCCCC
Key: 690.6
